Assay Notes: physchem
Format: physicochemical
Experimental Endpoint: half-life (h)
// return numeric value only (unit: h, not printed)

So what does the record say about half-life for "C=C1CC[C@H](O)C/C1=C/C=C1\CCC[C@]2(C)[C@@H]([C@H](C)CCCC(C)C)CC[C@@H]12" ?
76
